- protocolNotes: RP, Waters CORTECS UPLC C18, 100 × 2.1 mm, 1.6 µm, 40 °C, 0.4 mL/min, estimated dead time 0.55 min; A: water + 0.1% formic acid, pH 3; B: acetonitrile + 0.1% formic acid, pH 3; gradient (min/%B) 0/5 1.12/5 6.41/99.5 10.01/99.5
- assaySetup: stereoisomer not certain
Classify as follows. Reported LC retention time greater than or equal to 3 min: Satisfied. Reported LC retention time below: Not satisfied.

O=C(O)c1cc(=O)c2cccc(O)c2[nH]1 [XANTHURENATE]	Not satisfied
CC(CCC(=O)O)C1CCC2C3CC(O)C4CC(O)CCC4(C)C3CCC12C (stereo unspecified) [Hyodeoxycholic acid]	Satisfied
CCN(Cc1ccc(Cl)nc1)C(=C[N+](=O)[O-])NC [Nitenpyram]	Not satisfied
CCCC[n+]1cccc(S(=O)(=O)[O-])c1 [C4-APS]	Not satisfied
CCCCCCCCCCCC(=O)OC(CC(=O)[O-])C[N+](C)(C)C [Lauroyl-L-carnitine]	Satisfied
Cc1cccc2sc3nncn3c12 [Tricyclazol]	Satisfied
O=Cc1cccc(O)c1 [3-HYDROXYBENZALDEHYDE]	Not satisfied
CON=C(C(=O)OC)c1ccccc1COc1ccccc1C [Kresoxim-methyl]	Satisfied
CCCCCC=CCC=CCCCCCCCC(=O)OC(CC(=O)[O-])C[N+](C)(C)C [cis,cis-9,12-Octadecadienoyl-L-carnitine]	Satisfied
Nc1c(O)cccc1C(=O)O [3-HYDROXYANTHRANILATE]	Not satisfied

Query: Say whether O=c1c2cc(F)ccc2nc(-n2cncn2)n1-c1ccc(Cl)cc1Cl [Fluquinconazole] shows LC retention time of 3 min or more.
Reply: Satisfied

Entry source: the RepoRT retention time repository
